Hey, just so you know, these numbers are from patent US9346815B2.

- System: JAK1-dependent STAT6 phosphorylation downstream of IL-13 stimulation in TF-1 human erythroleukemia cells
- measurement description: JAK1 pathway assay in TF-1 cells (IL-13-pSTAT6, MSD)
- Type: cell-based
- measurement parameters: Homo sapiens, TF-1, TF-1 cells, read-out: IL13-pSTAT6 EC50_TF-1
pEC50: −log10 of the molar value.
quantity kind: pEC50

Worked examples, 5 compounds total:
[
  {
    "compound": "CN(CC(F)(F)F)C1CCN(c2nc(-c3cc(Cl)ccc3OC(F)F)c(NC(=O)c3cnn4cccnc34)s2)CC1 [Example 198]",
    "observed measurement": 7.54
  },
  {
    "compound": "O=C(Nc1cn(CC(=O)N2CCC(NCCc3ccccc3)CC2)nc1-c1cc(Cl)ccc1OC(F)F)c1cnn2cccnc12 [Example 89]",
    "observed measurement": 7.64
  },
  {
    "compound": "O=C(Nc1cn(CC(=O)N2CCC3(CCNC3)CC2)nc1-c1cc(Cl)ccc1OC(F)F)c1cnn2cccnc12 [Example 223]",
    "observed measurement": 6.73
  },
  {
    "compound": "CN1CC2(CCN(C(=O)Cn3cc(NC(=O)c4cnn5cccnc45)c(-c4cc(Cl)ccc4OC(F)F)n3)CC2)C1 [Example 218]",
    "observed measurement": 7.12
  },
  {
    "compound": "CN1CC[C@@H](n2cc(NC(=O)c3c(N)nn4cccnc34)c(-c3cc(Cl)ccc3OC(F)F)n2)C1 [Example 183]",
    "observed measurement": 8.17
  }
]

A = O=C(Nc1cn(CC(=O)N2CCN(CCO)CC2)nc1-c1cc(Cl)ccc1OC(F)F)c1cnn2cccnc12 [Example 228]
B = N=C(N)CCn1cc(NC(=O)c2cnn3cccnc23)c(-c2cc(Cl)ccc2OC(F)F)n1 [Example 304]
C = CN(C)Cc1ccc(-c2nc(-c3cc(Cl)ccc3OC(F)F)c(NC(=O)c3cnn4cccnc34)s2)cc1 [Example 255]
D = CN(CCc1ccc(C(F)(F)F)cc1)C1CCN(C(=O)Cn2cc(NC(=O)c3cnn4cccnc34)c(-c3cc(Cl)ccc3OC(F)F)n2)CC1 [Example 97]
[in] Highest pEC50 first, then in falling order down to the smallest. Answer format: the labels, in the requested order.
[out] B, A, C, D
(B: 8.23, A: 7.95, C: 7.06, D: 6.73)

I = CC(C)CN1CCC(n2cc(NC(=O)c3c(N)nn4cccnc34)c(-c3cc(Cl)ccc3OC(F)F)n2)CC1 [Example 174]
II = CN(CCCN1CCC(n2cc(NC(=O)c3c(N)nn4cccnc34)c(-c3cc(Cl)ccc3OC(F)F)n2)CC1)C(=O)c1ccccc1 [Example 151]
[in] So which one has the bigger pEC50 here, I or II ? Please reply using the label of the selected record.
[out] I
(I: 7.91, II: 7.03)

====

- measurement target: isolated recombinant JAK1 kinase domain (Homo sapiens (Human))
- Sequence (P23458 875-1153): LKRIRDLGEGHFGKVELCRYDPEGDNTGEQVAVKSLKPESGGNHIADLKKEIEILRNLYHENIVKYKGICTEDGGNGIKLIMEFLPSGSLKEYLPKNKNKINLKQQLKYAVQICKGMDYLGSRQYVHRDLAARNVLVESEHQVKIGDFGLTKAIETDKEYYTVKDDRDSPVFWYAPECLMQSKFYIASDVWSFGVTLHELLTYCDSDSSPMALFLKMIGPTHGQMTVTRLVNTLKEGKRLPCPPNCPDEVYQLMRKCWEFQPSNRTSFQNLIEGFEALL
- measurement description: JAK1 enzyme assay (Caliper LabChip, peptide phosphorylation)
- Format: biochemical
- measurement parameters: isolated recombinant JAK1 kinase domain, 25 μM ATP
quantity kind: Ki (nM)

[
  {
    "compound": "CN(C)C(=O)[C@@H]1CCCN1C1CCN(C(=O)Cn2cc(NC(=O)c3cnn4cccnc34)c(-c3cc(Cl)ccc3OC(F)F)n2)CC1 [Example 424]",
    "unit tag": "nM",
    "observed measurement": 1.12
  },
  {
    "compound": "O=C(CN1CCOCC1)Cn1cc(NC(=O)c2cnn3cccnc23)c(-c2cc(Cl)ccc2OC(F)F)n1 [Example 412]",
    "unit tag": "nM",
    "observed measurement": 1.7
  },
  {
    "compound": "O=C(Nc1cn(CC(=O)N2CCC3(CCNC3)CC2)nc1-c1cc(Cl)ccc1OC(F)F)c1cnn2cccnc12 [Example 223]",
    "unit tag": "nM",
    "observed measurement": 0.44
  },
  {
    "compound": "CN(Cc1cccc(Br)c1)C1CCN(C(=O)Cn2cc(NC(=O)c3cnn4cccnc34)c(-c3cc(Cl)ccc3OC(F)F)n2)CC1 [Example 122]",
    "unit tag": "nM",
    "observed measurement": 0.27
  }
]

A = O=C(Nc1cn(CC(=O)N2CCC(O)(CO)CC2)nc1-c1cc(Cl)ccc1OC(F)F)c1cnn2cccnc12 [Example 272]
B = CN(Cc1cccc(Oc2ccccc2)c1)C1CCN(C(=O)Cn2cc(NC(=O)c3cnn4cccnc34)c(-c3cc(Cl)ccc3OC(F)F)n2)CC1 [Example 113]
[in] So which one has the bigger Ki here, A or B ? Please reply using the label of the selected record.
[out] B

1 = O=C(Nc1cn(CC(=O)N2CCN(C3CCOC3)CC2)nc1-c1cc(Cl)ccc1OC(F)F)c1cnn2cccnc12 (stereo not shown) [Example 437]
2 = O=C(Nc1cn(CC(=O)N2C[C@H]3CN(CC4CCOCC4)C[C@H]3C2)nc1-c1cc(Cl)ccc1OC(F)F)c1cnn2cccnc12 [Example 26]
3 = Nc1nn2cccnc2c1C(=O)Nc1cn(C2CCN(CCCCc3ccccc3)CC2)nc1-c1cc(Cl)ccc1OC(F)F [Example 179]
[in] // smallest Ki at index 0, largest at the end Answer format: the labels, in the requested order.
[out] 1, 2, 3

A = O=C(Cn1cc(NC(=O)c2cnn3cccnc23)c(-c2cc(Cl)ccc2OC(F)F)n1)NCC1(CO)CC1 [Example 291]
B = CN(CCC#N)C1CCN(c2nc(-c3cc(Cl)ccc3OC(F)F)c(NC(=O)c3cnn4cccnc34)s2)CC1 [Example 189]
[in] So which one has the bigger Ki here, A or B ? Please reply using the label of the selected record.
[out] B
(B: 2.59 nM, A: 0.54 nM)

====

- measurement target: isolated recombinant JAK1 kinase domain (Homo sapiens (Human))
- measurement description: JAK1 enzyme assay (Caliper LabChip, peptide phosphorylation)
- Assay type: biochemical
- measurement parameters: isolated recombinant JAK1 kinase domain, 25 μM ATP
pKi: −log10 of the molar value.
quantity kind: pKi

[
  {
    "molecule smiles": "CN(C)C1CCN(C(=O)Cn2cc(NC(=O)c3cnn4cccnc34)c(-c3cc(Cl)ccc3OC(F)F)n2)CC1",
    "pKi": 9.05
  }
]

I = Nc1nn2cccnc2c1C(=O)Nc1cn(C2CCNCC2)nc1-c1cc(Cl)ccc1OC(F)F
II = O=C(Nc1cn(CC(=O)N2CCC(OCC(=O)N3CCOCC3)CC2)nc1-c1cc(Cl)ccc1OC(F)F)c1cnn2cccnc12
III = O=C(Nc1sc(-c2ccncc2)nc1-c1cc(Cl)ccc1OC(F)F)c1cnn2cccnc12
[in] // smallest pKi at index 0, largest at the end Answer format: the labels, in the requested order.
[out] III, I, II
(III: 8.79, I: 9.14, II: 9.39)

====

- Tested on: JAK1-dependent STAT6 phosphorylation downstream of IL-13 stimulation in TF-1 human erythroleukemia cells
- measurement description: JAK1 pathway assay in TF-1 cells (IL-13-pSTAT6, MSD)
- Format: cell-based
- measurement parameters: Homo sapiens, TF-1, TF-1 cells, read-out: IL13-pSTAT6 EC50_TF-1
Counter-ions that a name gives are not always drawn.
quantity kind: EC50 (nM)

[
  {
    "molecule": "CN(Cc1ccc2ccccc2c1)C1CCN(C(=O)Cn2cc(NC(=O)c3cnn4cccnc34)c(-c3cc(Cl)ccc3OC(F)F)n2)CC1",
    "observed measurement": 32.3
  },
  {
    "molecule": "O=C(Nc1sc(N2CCC(N3CC(F)(F)C3)CC2)nc1-c1cc(Cl)ccc1OC(F)F)c1cnn2cccnc12",
    "observed measurement": 17.4
  },
  {
    "molecule": "CN(CCOc1ccccc1Br)C1CCN(C(=O)Cn2cc(NC(=O)c3cnn4cccnc34)c(-c3cc(Cl)ccc3OC(F)F)n2)CC1",
    "observed measurement": 50
  },
  {
    "molecule": "CN1CCC(n2cc(NC(=O)c3c(N)nn4cccnc34)c(-c3cc(Cl)ccc3OC(F)F)n2)CC1",
    "observed measurement": 3.5
  },
  {
    "molecule": "CN[C@H]1C[C@@H](n2cc(NC(=O)c3c(N)nn4cccnc34)c(-c3cc(Cl)ccc3OC(F)F)n2)C1",
    "observed measurement": 4.4
  },
  {
    "molecule": "O=C(Nc1cn(CC(=O)N2C[C@H]3CN(CCCN4C(=O)Cc5ccccc54)C[C@H]3C2)nc1-c1cc(Cl)ccc1OC(F)F)c1cnn2cccnc12",
    "observed measurement": 15.1
  },
  {
    "molecule": "CC(C)(O)CCN1C[C@@H]2CN(C(=O)Cn3cc(NC(=O)c4cnn5cccnc45)c(-c4cc(Cl)ccc4OC(F)F)n3)C[C@@H]2C1",
    "observed measurement": 32
  },
  {
    "molecule": "CN(CCc1ccccc1)C1CCN(C(=O)Cn2cc(NC(=O)c3cnn4cccnc34)c(-c3cc(Cl)ccc3OC(F)F)n2)CC1",
    "observed measurement": 15.3
  },
  {
    "molecule": "O=C(Nc1cn(CC(=O)N2CCC(NC3CCC3)CC2)nc1-c1cc(Cl)ccc1OC(F)F)c1cnn2cccnc12",
    "observed measurement": 24.6
  }
]

I = CN1C[C@H]2C[C@@H]1CN2C(=O)Cn1cc(NC(=O)c2c(N)nn3cccnc23)c(-c2cc(Cl)ccc2OC(F)F)n1
II = CN(C)C1CCN(C(=O)c2ccc(-c3nc(-c4cc(Cl)ccc4OC(F)F)c(NC(=O)c4cnn5cccnc45)s3)cc2)CC1 [Example 253, hydrochloride]
III = CN(CCO)C1CCN(C(=O)Cn2cc(NC(=O)c3c(N)nn4cccnc34)c(-c3cc(Cl)ccc3OC(F)F)n2)CC1
IV = NC(=O)CCN1CCC(n2cc(NC(=O)c3c(N)nn4cccnc34)c(-c3cc(Cl)ccc3OC(F)F)n2)CC1
[in] // smallest EC50 at index 0, largest at the end Answer format: the labels, in the requested order.
[out] IV, II, III, I
